For each of the molecules below, state its Residual turnover [%].
Test system: Pseudomonas fluorescens HPPD polypeptide (wild-type and mutants)
Experiment: Coupled HPPD activity assay: turnover and residual turnover in crude HPPD polypeptide extracts with and without Cmpd. 1
Format: biochemical
Conditions: 100 μM Cmpd. 1, normalised to turnover without inhibitor
Give the value, in units of %, as a plain number.

Problem: Which value of Residual turnover [%] has been reported for SEQ ID NO:15 (protein, mutant HPPD polypeptide) MADLYENPMGLMGFEFIEFASPTPGTLEPIFEIMGFTKVATHRSKNVHLYRQGEINLILNNEPNSIASYFAAEHGPSVCGMAFRVKDSQKAYNRALELGAQPIHIDTGPMELNLPAIKGIGGAPLYLIDRFGEGSSIYDIDFVYLEGVERNPVGAGLKVIDHLTHNVYRGRMVYWANFYEKLFNFREARYFDIKGEYTGLTSKAMSAPDGMIRIPLNEESSKGAGQIEEFLMQFNGEGIQHVAFLTDDLVKTWDALKKIGMRFMTAPGDEYYEMLEGRLPDHGEPVDQLQARGILLDGSSVEGDKRLLLQIFSEQLMGPVFFEFIQRKGDDGFGPDSFKVLFESMERDQVRRGVLTAD in the records?
Solution: 39

Problem: Residual turnover [%] for SEQ ID NO:37 (protein, mutant HPPD polypeptide) MADLYENPMGLMGFEFIEFASPTPGTLEPIFEIMGFTKVATHRSKNVHLYRQGEINLILNNEPNSIASYFAAEHGPSVCGMAFRVKDSQKAYNRALELGAQPIHIDTGPMELNLPAIKGIGGAPLYLIDRFGEGSSIYDIDFVYLEGVERNPVGAGLKVIDHLTHNVYRGRMVYWANFYEKLFNFREARYFDIKGEYTGLTSKAMSAPDGMIRIPLNEESSKGAGQIEEFLMQFNGEGIQHVAFLTDDLVKTWDALKKIGMRFMTAPGDEYYEMLEGRLPDHGEPVDQLQARGILLDGSSVEGDKRLLLQIFSERLMGPVFFEFIQRKGDDGFGPHSFKVLFEQMERDQVRRGVLTAD ?
Solution: 42

Problem: For the molecule SEQ ID NO:44 (protein, mutant HPPD polypeptide) MADLYENPMGLMGFEFIEFASPTPGTLEPIFEIMGFTKVATHRSKNVHLYRQGEINLILNNEPNSIASYFAAEHGPSVCGMAFRVKDSQKAYNRALELGAQPIHIDTGPMELNLPAIKGIGGAPLYLIDRFGEGSSIYDIDFVYLEGVERNPVGAGLKVIDHLTHNVYRGRMVYWANFYEKLFNFREARYFDIKGEYTGLTSKAMSAPDGMIKIPLNEESSKGAGQIEEFLMQFNGEGIQHVAFLTDDLVKTWDALKKIGMRFMTAPGDEYYEMLEGRLPDHGEPVDQLQARGILLDGSSVEGDKRLLLQIFSEQLMGPVFFEFIQRKGDDGFGPHSFKVLFESMERDQVRRGVLTAD , what Residual turnover [%] is on record?
Solution: 54

Problem: Returns the measured Residual turnover [%] for the input molecule. Input: SEQ ID NO:59 (protein, mutant HPPD polypeptide) MADLYENPMGLMGFEFIEFASPTPGTLEPIFEIMGFTKVATHRSKNVHLYRQGEINLILNNEPNSIASYFAAEHGPSVCGMAFRVKDSQKAYNRALELGAQPIHIDTGPMELNLPAIKGIGGAPLYLIDRFGEGSSIYDIDFVYLEGVERNPVGAGLKVIDHLTHNVYRGRMVYWANFYEKLFNFREARYFDIKGEYTGLTSKAMSAPDGMIRIPLNEESSKGAGQIEEFLMQFNGEGIQHVAFLTDDLVKTWDALKKIGMRFLTAPGDEYYEMLEGRLPDHGEPVDQLQARGILLDGSSVEGDKRLLLQIFSEKLMGPVFFEFIQRKGDDGFGPDSFKVLFEQMERDQVRRGVLTAD
Solution: 59
